Listing: absorption maximum of selected compounds
assay: solvent given as SMILES; details: in CCCCCC
Measured Attribute: absorption maximum

[[record]]
compound = "COC(=O)c1ccc(C#Cc2ccccc2)cc1"
measured_attribute = "absorption maximum"
result = "314.8 nm"

[[record]]
compound = "CC\\C=C/C=C/C=C/C=C\\CCCCCCCC(=O)O"
measured_attribute = "absorption maximum"
result = "318.9 nm"

[[record]]
compound = "CC1=CC(C)=[N+]2C1=Cc1cccn1[B-]2(F)F"
measured_attribute = "absorption maximum"
result = "493 nm"

[[record]]
compound = "CCc1c(C)[nH]c(C2=[N+]3C(=C(C)c4c(C)c(CC)c(C)n4[B-]3(F)F)c3ccccc32)c1C"
measured_attribute = "absorption maximum"
result = "620 nm"

[[record]]
compound = "CCC1(CC)c2cc(B(c3c(C)cc(C)cc3C)c3c(C)cc(C)cc3C)ccc2-c2ccc(N(c3ccccc3)c3ccccc3)cc21"
measured_attribute = "absorption maximum"
result = "401 nm"

[[record]]
compound = "CON(OC)c1cc2c3cc(-c4c(C)cc(C)cc4C)cc4c5cc(-c6c(C)cc(C)cc6C)cc6c7cc(B(c8c(C)cc(C)cc8C)c8c(C)cc(C)cc8C)cc8c9cc(-c%10c(C)cc(C)cc%10C)cc%10c%11cc(-c%12c(C)cc(C)cc%12C)cc%12c(c1)c2c1c(c43)c(c65)c(c78)c(c9%10)c1c%11%12"
measured_attribute = "absorption maximum"
result = "453 nm"

[[record]]
compound = "CC(C)[Si](C#Cc1c2nc3ccccc3nc2c(C#C[Si](C(C)C)(C(C)C)C(C)C)c2nc3ccccc3nc12)(C(C)C)C(C)C"
measured_attribute = "absorption maximum"
result = "681 nm"

[[record]]
compound = "CN(C)c1ccc(C#Cc2ccc3ccc4c(C#Cc5ccc(N(C)C)cc5)ccc5ccc2c3c54)cc1"
measured_attribute = "absorption maximum"
result = "439 nm"

[[record]]
compound = "F[B-]1(F)n2c(c3cccc4cccc2c43)=Nc2ccc3ccccc3[n+]21"
measured_attribute = "absorption maximum"
result = "490 nm"

[[record]]
compound = "[C-]#[N+]c1ccc(-c2ccc(N)cc2)cc1"
measured_attribute = "absorption maximum"
result = "301 nm"

[[record]]
compound = "COc1ccc(-c2cc(-c3ccc(C)cc3)c(C#N)c(OC)n2)cc1"
measured_attribute = "absorption maximum"
result = "334 nm"

[[record]]
compound = "CC1=CC(C)=[N+]2C1=C(C)c1cccn1[B-]2(F)F"
measured_attribute = "absorption maximum"
result = "492 nm"

[[record]]
compound = "O=Cc1cc(C=O)c2ccc3c(N4CCCCC4)cc(N4CCCCC4)c4ccc1c2c43"
measured_attribute = "absorption maximum"
result = "498 nm"

[[record]]
compound = "CCOC(=O)COc1ccc(/C=C/C2=C3c4ccccc4C(c4ccc[nH]4)=[N+]3[B-](F)(F)n3ccc(C)c32)cc1"
measured_attribute = "absorption maximum"
result = "587 nm"

[[record]]
compound = "Cc1ccc(C)n1-c1ccc(C#N)cc1"
measured_attribute = "absorption maximum"
result = "275 nm"

[[record]]
compound = "Cc1cc(C)n2c1C=C1c3ccccc3C(c3c[nH]c4ccccc34)=[N+]1[B-]2(F)F"
measured_attribute = "absorption maximum"
result = "580 nm"

[[record]]
compound = "O=c1c2ccccc2n2c3ccc(-c4ccccc4)cc3c(=O)c3cccc1c32"
measured_attribute = "absorption maximum"
result = "434 nm"

[[record]]
compound = "CC(C)[Si](C#Cc1c2ccccc2c(C#C[Si](C(C)C)(C(C)C)C(C)C)c2nc3cc4c(cc3nc12)C1c2ccccc2C4c2ccccc21)(C(C)C)C(C)C"
measured_attribute = "absorption maximum"
result = "558 nm"

[[record]]
compound = "CC1=CC(C)=[N+]2C1=C(c1ccc(N(C)C)cc1)c1c(C)cc(C)n1[B-]2(F)F"
measured_attribute = "absorption maximum"
result = "500 nm"

[[record]]
compound = "Cc1ccc2c(c1)C(=O)c1ccncc1-2"
measured_attribute = "absorption maximum"
result = "408.95 nm"

[[record]]
compound = "CCC1=C(C)C2=C(c3c(C)cc(C)nc3-c3cccs3)c3c(C)c(CC)c(C)n3[B-](F)(F)[N+]2=C1C"
measured_attribute = "absorption maximum"
result = "531 nm"

[[record]]
compound = "CCCCCCC(CCCCCC)N1C(=O)c2cccc3c(-c4ccc(C#N)cc4)ccc(c23)C1=O"
measured_attribute = "absorption maximum"
result = "355.6 nm"

[[record]]
compound = "C/C(=N\\Nc1ccc(C#N)cc1)c1ccccn1"
measured_attribute = "absorption maximum"
result = "347 nm"

[[record]]
compound = "CCN(CC)c1ccc(-n2c(C)ccc2C)cc1"
measured_attribute = "absorption maximum"
result = "310 nm"

[[record]]
compound = "O=C1/C(=C/C=C/c2cc3c4c(c2)CCCN4CCC3)CC/C1=C\\C=C\\c1cc2c3c(c1)CCCN3CCC2"
measured_attribute = "absorption maximum"
result = "457 nm"

[[record]]
compound = "Cc1ccc(/C=N/c2cc(C(C)C)c(O)cc2C)cc1"
measured_attribute = "absorption maximum"
result = "340 nm"

[[record]]
compound = "COc1c(/C=N/Nc2ccc(C#N)cc2)ccc2ccccc12"
measured_attribute = "absorption maximum"
result = "387 nm"

[[record]]
compound = "CC1=[N+]2C(=C(c3ccccc3)c3c4c5ccccc5c5ccccc5c4c(C)n3[B-]2(F)F)c2c1c1ccccc1c1ccccc21"
measured_attribute = "absorption maximum"
result = "630 nm"

[[record]]
compound = "CCCCCCC(CCCCCC)N1C(=O)c2cccc3c(-c4ccc(N(C)C)cc4)ccc(c23)C1=O"
measured_attribute = "absorption maximum"
result = "401.2 nm"

[[record]]
compound = "CCN(CC)c1ccc(/C=N/Nc2ccc(C#N)cc2)c(O)c1"
measured_attribute = "absorption maximum"
result = "384 nm"

[[record]]
compound = "O=C(c1ccncc1)c1ccc(-n2c3ccccc3c3ccccc32)cc1"
measured_attribute = "absorption maximum"
result = "354.95 nm"

[[record]]
compound = "O=C1OC(c2ccccc2)=N/C1=C\\c1ccc(N(c2ccc(/C=C3\\N=C(c4ccccc4)OC3=O)cc2)c2ccc(/C=C3/N=C(c4ccccc4)OC3=O)cc2)cc1"
measured_attribute = "absorption maximum"
result = "491 nm"

[[record]]
compound = "CCCCCCCCC1(CCCCCCCC)c2ccccc2-c2ccc(N(c3ccc(-n4c5ccccc5c5ccccc54)cc3)c3ccc4c(c3)C(CCCCCCCC)(CCCCCCCC)c3ccccc3-4)cc21"
measured_attribute = "absorption maximum"
result = "347 nm"

[[record]]
compound = "Cc1cc(C)n2c1C=C1C(=O)N(C)C(c3ccc([N+](=O)[O-])cc3)=[N+]1[B-]2(F)F"
measured_attribute = "absorption maximum"
result = "498 nm"

[[record]]
compound = "CC1CC=C(c2ccc(-c3ccc(C#N)s3)s2)CC1 (stereo unspecified)"
measured_attribute = "absorption maximum"
result = "356 nm"

[[record]]
compound = "CCC1=C(C)C2=Cc3c4ccccc4c4n3[B-](c3ccccc3)(Oc3ccccc3-4)[N+]2=C1C (stereo unspecified)"
measured_attribute = "absorption maximum"
result = "625 nm"


Cited source: the Deep4Chem optical property database
